assay: Dose linearity and effect of feeding, PK in cats (Example 10); format: in vivo, cat; settings: female, serum, po, 6 mg/kg, cats, Group 3, 6 mg/kg capsule, Fasted, Female, mean; read-out: Tmax
endpoint.label: Tmax (h)
API: value field is a number in h; no unit string.

Need Tmax, item CCc1nc2c(C)nc(C)cc2n1-c1ccc(CCNC(=O)NS(=O)(=O)c2ccc(C)cc2)cc1
1.17

---

test: Dose linearity and effect of feeding, PK in cats (Example 10); assay type: in vivo, cat; settings: male, serum, po, 2 mg/kg, cats, Group 1, 2 mg/kg capsule, Fed, Male, mean; read-out: Tmax
endpoint.label: Tmax (h)
API: value field is a number in h; no unit string.

Need Tmax, item CCc1nc2c(C)nc(C)cc2n1-c1ccc(CCNC(=O)NS(=O)(=O)c2ccc(C)cc2)cc1
1.65

---

test: Dose linearity and effect of feeding, PK in cats (Example 10); format: in vivo, cat; conditions: both sexes, serum, po, 6 mg/kg, Group 3 fasted cats, single oral 6 mg/kg capsule, males and females; read-out: mean Tmax
endpoint.label: Tmax

Need Tmax, item CCc1nc2c(C)nc(C)cc2n1-c1ccc(CCNC(=O)NS(=O)(=O)c2ccc(C)cc2)cc1 [grapiprant]
0.99 to 1.17 h

---

experiment: Crossover PK of tablet vs methylcellulose suspension in beagle dogs (Example 15); assay type: in vivo, beagle dog; conditions: both sexes, beagle, dog, serum, po, 500 mg, beagle dogs, both sexes combined, Day 0, 500-mg suspension
endpoint.label: Cmax (µg/mL)
API: value field is a number in µg/mL; no unit string.

Need Cmax, item CCc1nc2c(C)nc(C)cc2n1-c1ccc(CCNC(=O)NS(=O)(=O)c2ccc(C)cc2)cc1
76.8

---

Assay: Dose linearity and effect of feeding, PK in cats (Example 10)
Type: in vivo, cat
Details: male, serum, po, 2 mg/kg, cats, Group 1, 2 mg/kg capsule, Fed, Male, mean; read-out: Cmax
Description: Grapiprant was blended in a mixture of excipients as shown in Table 14 and administered orally by capsule to male and female cats. The day of dosing was defined as Day 0. Following dosing, the animals were evaluated for clinical signs. Blood samples were collected prior to dosing and at 0.25, 0.5, 1, 2, 4, 8, 12, and 24-hours postdose. The blood samples were processed to serum and analyzed for grapiprant concentration. There were no test article-related clinical signs. […]
endpoint.label: Cmax (ng/mL)
API: value field is a number in ng/mL; no unit string.

Need Cmax, item CCc1nc2c(C)nc(C)cc2n1-c1ccc(CCNC(=O)NS(=O)(=O)c2ccc(C)cc2)cc1 [grapiprant]
407

---

assay: Dose linearity and effect of feeding, PK in cats (Example 10); assay type: in vivo, cat; conditions: female, serum, po, 2 mg/kg, cats, Group 2, 2 mg/kg capsule, Fasted, Female, mean
endpoint.label: AUC(0-t) (ng·h/mL)
API: value field is a number in ng·h/mL; no unit string.

Need AUC(0-t), item CCc1nc2c(C)nc(C)cc2n1-c1ccc(CCNC(=O)NS(=O)(=O)c2ccc(C)cc2)cc1
2780

---

assay: Dose linearity and effect of feeding, PK in cats (Example 10); format: in vivo, cat; conditions: male, serum, po, 10 mg/kg, cats, Group 4, 10 mg/kg capsule, Fasted, Male, mean
endpoint.label: AUC(0-t) (ng·h/mL)
API: value field is a number in ng·h/mL; no unit string.

Need AUC(0-t), item CCc1nc2c(C)nc(C)cc2n1-c1ccc(CCNC(=O)NS(=O)(=O)c2ccc(C)cc2)cc1
7430
